System: human umbilical vein endothelial cells (HUVEC), VEGF-independent proliferation
Assay: VEGF-independent HUVEC proliferation inhibition assay
Type: cell-based
Conditions: read-out: 50% proliferation inhibitory concentration (IC50 value) HUVEC (VEGF-independent), vascular endothelial cell growth-promoting agent and heparin, 72 hours, WST-1
Reported IC50 values for the following compounds.
quantity: IC50 (nM)

record_smiles | measured
O=C(Nc1ccc(Oc2ccnc3[nH]ccc23)cc1)Nc1ccc(OCC(F)(F)F)c(C(F)(F)F)c1 | 1200
O=C(Nc1ccc(Oc2ccnc3[nH]ccc23)cc1)Nc1ccc(OC2CCOCC2)c(C(F)(F)F)c1 | 860
O=C(Nc1ccc(Oc2ccnc3[nH]ccc23)cc1)Nc1ccc(CF)c(C(F)(F)F)c1 | 800
O=C(Nc1ccc(Oc2ccnc3[nH]ccc23)cc1)Nc1ccc(OCCF)c(C(F)(F)F)c1 | 1200
CCc1ccc(NC(=O)Nc2ccc(Oc3ccnc4[nH]ccc34)cc2)cc1C(F)(F)F | 1400
O=C(Nc1ccc(Oc2ccnc3[nH]ccc23)cc1)Nc1cc(CCC(F)F)cc(C(F)(F)F)c1 | 1200
O=C(Nc1ccc(Oc2ccnc3[nH]ccc23)cc1)Nc1ccc2c(CCF)cccc2c1 | 5900
O=C(Nc1ccc(Oc2ccnc3[nH]ccc23)cc1)Nc1ccc(CCC(F)F)c(C(F)(F)F)c1 | 270

====

Items are presented alongside their recorded IC50.
Biological target: Raf-1 (Homo sapiens)
Sequence (P04049 whole entry): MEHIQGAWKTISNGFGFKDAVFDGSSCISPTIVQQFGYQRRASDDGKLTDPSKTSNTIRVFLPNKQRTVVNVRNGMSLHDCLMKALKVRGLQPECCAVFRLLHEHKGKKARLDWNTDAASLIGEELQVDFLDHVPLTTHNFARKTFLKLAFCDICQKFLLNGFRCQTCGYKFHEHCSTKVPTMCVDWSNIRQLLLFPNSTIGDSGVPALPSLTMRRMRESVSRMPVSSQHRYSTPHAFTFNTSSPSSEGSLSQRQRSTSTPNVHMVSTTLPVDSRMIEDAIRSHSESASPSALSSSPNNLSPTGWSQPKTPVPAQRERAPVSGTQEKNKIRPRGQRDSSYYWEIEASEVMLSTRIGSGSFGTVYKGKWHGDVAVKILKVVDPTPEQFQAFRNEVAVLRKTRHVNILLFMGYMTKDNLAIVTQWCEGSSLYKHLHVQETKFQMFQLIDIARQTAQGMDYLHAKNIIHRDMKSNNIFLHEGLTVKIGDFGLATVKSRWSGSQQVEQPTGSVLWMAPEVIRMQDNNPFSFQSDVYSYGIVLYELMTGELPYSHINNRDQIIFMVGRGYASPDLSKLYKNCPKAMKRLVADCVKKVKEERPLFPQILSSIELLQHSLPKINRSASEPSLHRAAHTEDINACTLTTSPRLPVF
quantity: IC50 (nM)

record_smiles | measured
CCc1ccc(NC(=O)Nc2ccc(Oc3ccnc4[nH]ccc34)cc2)cc1C(F)(F)F | 47
C=Cc1ccc(NC(=O)Nc2ccc(Oc3ccnc4[nH]ccc34)cc2)cc1C(F)(F)F | 70
O=C(Nc1ccc(Oc2ccnc3[nH]ccc23)cc1)Nc1cc(OC2CCOCC2)cc(C(F)(F)F)c1 | 65
O=C(Nc1ccc(Oc2ccnc3[nH]ncc23)cc1)Nc1ccc(CCF)c(C(F)(F)F)c1 | 19
